# Test System: full-length human Tau (hTau40) (Homo sapiens, UniProt P10636)
# Construct: The full-length human Tau (hTau40) was expressed in a transformed E. coli BL21 (DE3) strain; made in house; host or cells: E. coli BL21 (DE3)
# Assay Remarks: Tau oligomerization inhibition assay (heparin-induced, thioflavin S fluorescence)
# Type: biochemical
# Settings: 2 µM Tau, heparin-induced, ThS; buffer A pH 6.9; 25 °C per table footnote (37 °C in method); mean ± SD; read-out: Inhibition of Aggregation IC50
pIC50: −log10 of the molar value.
Quantity Measured: pIC50

Before answering, review these 4 worked examples.
| Record Smiles | pIC50 |
| --- | --- |
| Nc1nc2ccc3oc(-c4cccc(F)c4)cc(=O)c3c2s1 | 4.77 |
| COc1c(-c2cccc(F)c2)oc2ccc3nc(N)sc3c2c1=O | 4.93 |
| Nc1nc2ccc3nc(-c4cccc(Oc5ccccc5)c4)[nH]c(=O)c3c2s1 | 4.97 |
| COc1c(-c2ccc(F)cc2)oc2ccc3nc(N)sc3c2c1=O | 5.19 |

(I) Nc1nc2ccc3oc(-c4ccccc4F)cc(=O)c3c2s1
(II) Nc1nc2ccc3oc(-c4ccc(F)cc4)cc(=O)c3c2s1
[Q] Please indicate which has the smaller reported pIC50: I , or II . Lab log: write the label of the selected item as the result.
[A] II

* * *

Quick reference for IC50 among some compounds
# Test system: U251 glioblastoma cells
# Assay Remarks: MTT cell viability assay, U251
# Format: cell-based
# Settings: Homo sapiens, U-251, U251, 72 h, mean ± SEM, read-out: IC50 (metabolic activity)

Before answering, review these 2 worked examples.
| Compound | Result |
| --- | --- |
| Nc1nc2ccc3nc(-c4cccc(Oc5ccccc5)c4)[nH]c(=O)c3c2s1 | > 100 µM |
| O=c1c(O)c(-c2ccc(O)c(O)c2)oc2cc(O)cc(O)c12 [QCT, quercetin, reference compound] | > 100 µM |

[Q] State its IC50: `Nc1nc2ccc3oc(C(=O)O)cc(=O)c3c2s1`
[A] > 100 µM

* * *

# Test System: Tau protein (full-length human Tau, hTau40) (Homo sapiens)
# Construct: The full-length human Tau (hTau40) was expressed in a transformed E. coli BL21 (DE3) strain; made in house; host or cells: E. coli BL21 (DE3)
# Sequence (P10636 1-441 isoform P10636-8): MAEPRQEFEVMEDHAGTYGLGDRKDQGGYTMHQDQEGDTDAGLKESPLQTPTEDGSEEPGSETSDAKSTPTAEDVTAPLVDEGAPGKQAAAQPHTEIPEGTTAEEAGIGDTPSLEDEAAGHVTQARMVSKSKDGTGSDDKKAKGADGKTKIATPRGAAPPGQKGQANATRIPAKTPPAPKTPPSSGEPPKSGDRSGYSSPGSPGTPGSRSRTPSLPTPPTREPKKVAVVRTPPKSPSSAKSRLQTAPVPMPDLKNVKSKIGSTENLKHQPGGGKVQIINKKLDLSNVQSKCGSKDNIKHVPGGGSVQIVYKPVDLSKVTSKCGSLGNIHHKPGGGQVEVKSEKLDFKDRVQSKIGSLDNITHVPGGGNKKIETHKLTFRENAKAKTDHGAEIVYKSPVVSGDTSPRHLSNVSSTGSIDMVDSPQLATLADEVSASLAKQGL
# Assay Remarks: Tau intrinsic fluorescence quenching, modified Stern–Volmer binding parameters
# Settings: 5 µM Tau, buffer B pH 6.8, mean ± SD, read-out: Equilibrium Binding Constants to Tau, KD
Quantity Measured: Kd (µM)

Before answering, review these 3 worked examples.
| Compound | Kd [µM] |
| --- | --- |
| COc1c(-c2ccc(F)cc2)oc2ccc3nc(N)sc3c2c1=O [Compound 15] | 4.1 |
| COc1c(-c2cccc(F)c2)oc2ccc3nc(N)sc3c2c1=O [Compound 14] | 4.2 |
| O=c1c(O)c(-c2ccc(O)c(O)c2)oc2cc(O)cc(O)c12 [QCT, quercetin, reference compound] | 2.4 |

(P) Nc1nc2ccc3oc(-c4cccc(Oc5ccccc5)c4)cc(=O)c3c2s1 [Compound 2]
(Q) CCOC(=O)c1ccc(-c2cc(=O)c3c(ccc4nc(N)sc43)o2)cc1 [Compound 4]
[Q] API: POST /compare with P and Q ; response names the item with higher Kd. Lab log: write the label of the selected item as the result.
[A] P

* * *

# Test System: full-length human Tau (hTau40) (Homo sapiens, UniProt P10636)
# Construct: The full-length human Tau (hTau40) was expressed in a transformed E. coli BL21 (DE3) strain; made in house; host or cells: E. coli BL21 (DE3)
# Assay Remarks: Tau oligomerization inhibition assay (heparin-induced, thioflavin S fluorescence)
# Assay type: biochemical
# Settings: 2 µM Tau, heparin-induced, ThS; buffer A pH 6.9; 25 °C per table footnote (37 °C in method); mean ± SD; read-out: Inhibition of Aggregation IC50
pIC50: −log10 of the molar value.
Quick reference for pIC50 among some compounds

| Record Smiles | pIC50 |
| --- | --- |
| Nc1nc2ccc3oc(C(=O)O)cc(=O)c3c2s1 | < 4.00 |
| Nc1nc2ccc3oc(-c4ccc(F)cc4)c(O)c(=O)c3c2s1 | < 4.00 |

Now for the compound whose pIC50 we want.
[Q] State its pIC50: `Nc1nc2ccc3nc(-c4ccc(Oc5ccccc5)cc4)[nH]c(=O)c3c2s1`
[A] < 4.00
